Data credit: the supplement of paper PMC10567573

B1: C9orf9 (parent)
chain: TKHKCRQLTKASLKPRGCSKPPWR

- Variants of: B1
- TEST_DETAILS: protein stability index of a GFP-peptide fusion (GPS, HEK-293T) (PSI 1-6); higher = more stable;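 note: lentivirally expressed fusions sorted by FACS into six bins by GFP to DsRed ratio, PSI derived from sequencing read proportions per bin multiplied by bin number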
- PARTICULARS: c terminus: a fixed tail appended
MEASURED_QUANTITY: protein stability index
Give the figure only, with no unit attached.

Some entries whose results are on file:
{"MUTANT_NAME": "K4F", "protein stability index": 1.82}
{"MUTANT_NAME": "R16T", "protein stability index": 2.67}
{"MUTANT_NAME": "K14L", "protein stability index": 2.75}
{"MUTANT_NAME": "K4C", "protein stability index": 1.91}
{"MUTANT_NAME": "S19N", "protein stability index": 2.44}
{"MUTANT_NAME": "S12A", "protein stability index": 2.98}
{"MUTANT_NAME": "K4A", "protein stability index": 2.94}
{"MUTANT_NAME": "Q7E", "protein stability index": 2.73}

Turning now to a further record.
Identify measured protein stability index corresponding to R16S 2.89
